These measurements were taken from the supplement of paper PMC12350171.

Tested on: Salmonella enterica typhimurium
assay_remarks: growth AUC normalised to DMSO control (fraction of control); higher = less growth inhibition, active = hit call of the paper
test_context: 20 µM
Items are presented alongside their recorded growth AUC normalised to DMSO control.

[
  {
    "compound": "CCCCNc1ccc(C(=O)OCCOCCOCCOCCOCCOCCOCCOCCOCCOC)cc1 [Benzonatate]",
    "growth AUC normalised to DMSO control": 1.01
  },
  {
    "compound": "CNCCC=C1c2ccccc2C=Cc2ccccc21",
    "growth AUC normalised to DMSO control": 0.983
  },
  {
    "compound": "COc1ccccc1N1CCN(CCCCNC(=O)c2ccc3ccccc3c2)CC1",
    "growth AUC normalised to DMSO control": 1.01
  },
  {
    "compound": "Cc1c(Cl)cccc1Nc1ncccc1C(=O)O [Clonixin lysinate]",
    "growth AUC normalised to DMSO control": 1
  }
]

====

Tested on: Yersinia pseudotuberculosis
assay_remarks: growth AUC normalised to DMSO control (fraction of control); higher = less growth inhibition, active = hit call of the paper
test_context: 20 µM
Structures can show the parent of a compound that is named as a salt.
Outcomes: active, inactive

[
  {
    "compound": "CCN(CCCc1ccccc1)CCCc1ccccc1 [Alverine citrate salt]",
    "group_label": "inactive"
  },
  {
    "compound": "O=C(NCCNCC(O)COc1ccc(O)cc1)N1CCOCC1 (configuration not stated) [Xamoterol hemifumarate]",
    "group_label": "inactive"
  },
  {
    "compound": "Cc1onc(-c2c(F)cccc2Cl)c1C(=O)N[C@@H]1C(=O)N2[C@@H]1SC(C)(C)[C@@H]2C(=O)O [Flucloxacillin sodium]",
    "group_label": "inactive"
  },
  {
    "compound": "CC(=O)Oc1ccccc1C(=O)O",
    "group_label": "inactive"
  },
  {
    "compound": "Oc1c(Cl)cc(Cl)c2cccnc12",
    "group_label": "active"
  },
  {
    "compound": "CC(C)[C@H](N)C(=O)OCCOCn1cnc2c(=O)nc(N)[nH]c21 [Valacyclovir hydrochloride]",
    "group_label": "inactive"
  },
  {
    "compound": "CC/C(=C(\\c1ccccc1)c1ccc(OCCN(C)C)cc1)c1ccccc1 [Tamoxifen citrate]",
    "group_label": "inactive"
  }
]

====

System: P. vulgatus RND KO;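 further: active when median AUC fell below 0.1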
assay_remarks: growth AUC normalised to DMSO control (median) (fraction of control); higher = less growth inhibition, active = hit call of the paper
test_context: 20 µM
Where a name gives a salt, the structure may show the parent alone.
Labels: true for active, false for inactive

[
  {
    "compound": "Cc1cc(C#N)cc(C)c1Oc1nc(Nc2ccc(C#N)cc2)nc(N)c1Br",
    "group_label": "false"
  },
  {
    "compound": "CC(=O)OCC(=O)[C@@]1(O)CC[C@H]2[C@@H]3CCC4=CC(=O)CC[C@]4(C)[C@@]3(F)[C@@H](O)C[C@@]21C [Fludrocortisone acetate]",
    "group_label": "false"
  },
  {
    "compound": "CC(Cc1cccc(C(F)(F)F)c1)NCCOC(=O)c1ccccc1 (stereo not given)",
    "group_label": "false"
  },
  {
    "compound": "O=C(O)c1ccccc1Nc1cc(Cl)ccc1C(=O)O [Lobenzarit disodium]",
    "group_label": "false"
  },
  {
    "compound": "C[N+]1(C)CCC(OC(=O)C(O)(c2ccccc2)C2CCCC2)C1 (stereo not given) [Glycopyrrolate bromide]",
    "group_label": "false"
  },
  {
    "compound": "Oc1ccc(C2CNCCc3c2cc(O)c(O)c3Cl)cc1 (stereo not given)",
    "group_label": "false"
  },
  {
    "compound": "Cc1cc(N)c2ccccc2[n+]1CCCCCCCCCC[n+]1c(C)cc(N)c2ccccc21 [Dequalinium dichloride]",
    "group_label": "true"
  },
  {
    "compound": "O=C(O)c1cccnc1Nc1cccc(C(F)(F)F)c1",
    "group_label": "false"
  },
  {
    "compound": "CN1CCN(c2c(F)cc3c(=O)c(C(=O)O)cn4c3c2SCC4)CC1",
    "group_label": "false"
  },
  {
    "compound": "CN1CCCN=C1/C=C/c1cccc(O)c1 [Oxantel pamoate]",
    "group_label": "false"
  },
  {
    "compound": "CCN(CC)CCOc1ccc(C(=C(Cl)c2ccccc2)c2ccccc2)cc1 [(Z,E) Clomiphene citrate]",
    "group_label": "false"
  },
  {
    "compound": "O=C(O)CCC(=O)c1ccc(-c2ccccc2)cc1",
    "group_label": "false"
  },
  {
    "compound": "Cc1cc(C2CCCCC2)n(O)c(=O)c1",
    "group_label": "false"
  },
  {
    "compound": "COc1cc(C(=O)NCc2ccc(OCCN(C)C)cc2)cc(OC)c1OC [Trimethobenzamide hydrochloride]",
    "group_label": "false"
  },
  {
    "compound": "CCOC(=O)c1ccc(OC(=O)CCCCCNC(=N)N)cc1 [Gabexate mesilate]",
    "group_label": "false"
  }
]
